Exercise: for every item that follows, state its recorded IC50.
Target: C-X-C chemokine receptor type 6 (Homo sapiens) (UniProt O00574)
Sequence (O00574 whole entry, looked up): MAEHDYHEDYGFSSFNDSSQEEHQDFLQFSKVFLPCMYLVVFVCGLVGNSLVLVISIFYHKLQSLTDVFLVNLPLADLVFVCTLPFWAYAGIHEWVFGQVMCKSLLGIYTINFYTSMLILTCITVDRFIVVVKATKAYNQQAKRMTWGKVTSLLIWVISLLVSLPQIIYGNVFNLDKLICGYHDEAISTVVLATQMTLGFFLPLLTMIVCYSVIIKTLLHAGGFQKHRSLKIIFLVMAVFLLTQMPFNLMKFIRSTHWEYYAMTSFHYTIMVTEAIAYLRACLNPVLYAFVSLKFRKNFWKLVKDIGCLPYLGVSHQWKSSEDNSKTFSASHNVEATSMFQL
Experiment: potency against CXCR6 with APJ panel – cell-based, beta-arrestin, DiscoveRx, uHTS hits, dose response (AID 624129)
Conditions: CXCR6 beta-arrestin (DiscoveRx) antagonist cell assay, CXCR6, run 2, dose range 2
Write the value in µM as a bare number.

Request the reported IC50 associated with N#CC(C#N)=C1C=CC=CN1/C(=C\c1ccco1)C(=O)c1ccc(-c2ccccc2)cc1
16

Now the compound O=c1cc(CSc2ccc(Cl)cc2)nc(-c2ccccn2)[nH]1
3.2

Now the compound CCCC(=O)OCCNc1cc(Sc2nc3ccccc3[nH]2)c2nonc2c1[N+](=O)[O-]
7.1

Now the compound CCOc1cc(Br)c(Br)c(C=Nc2ccc(NC(C)=O)cc2)c1O
14.1

Now the compound N#CC(C#N)=C1C=CC=CN1/C(=C\c1ccccc1Cl)C(=O)c1ccccc1
10.8

Now the compound O=[N+]([O-])c1cc2no[n+]([O-])c2cc1N1CCCCC1
11.9

Now the compound CCCC(=O)OCCNc1cc(SCCC(=O)OC)c2nonc2c1[N+](=O)[O-]
20.3

Now the compound C/C(=N\NC(=O)C1COc2ccccc2O1)c1ccccn1 (stereo not given)
3.74

Now the compound CCN(CC(=O)NC(C)(C)C)Cc1nc2c(Br)cc(Br)cc2c(=O)[nH]1
13.8

----------
Molecular target: C-X-C chemokine receptor type 6 (Homo sapiens) (UniProt O00574)
Experiment: potency against CXCR6 with APJ panel – cell-based, beta-arrestin, DiscoveRx, uHTS hits, dose response (AID 624129)
Conditions: CXCR6 beta-arrestin (DiscoveRx) antagonist cell assay, CXCR6, dose range 1, mean IC50 across replicates
Field 'label' (enum: yes / no). Set to yes when IC50 is strictly under 10 µM; else no.

Here's an entry: CCC(=O)OCCNc1cc(Sc2nc3ccccc3s2)c2nonc2c1[N+](=O)[O-] . Is its IC50 below 10 µM?
yes

Now the compound FC(F)(F)c1cnc(NNC(=S)Nc2ccc(Cl)cc2)c(Cl)c1
no

Now the compound Cc1cc(O)c(-c2cc(O)c(C)cc2O)cc1O
no

Now the compound O=C(Nc1ccccc1)c1nnsc1S(=O)c1ccc(Cl)cc1 (stereo unspecified)
no

Now the compound FC(F)(F)c1cnc(NNC(=S)Nc2cccnc2)c(Cl)c1
no

Now the compound CCS(=O)(=O)c1ncc(Cl)c(C(=O)Nc2ccc(S(=O)(=O)N3CCC(C)CC3)cc2)n1
yes

Now the compound O=C1CC(Sc2nnnn2-c2ccccc2)C(=O)N1c1cccc(Cl)c1 (stereo unspecified)
no

Now the compound N=C1S/C(=C\c2ccco2)C(=O)N1c1nccs1
yes

Now the compound NNc1nc(-c2ccccc2)cc(-c2ccccc2O)n1
yes

Now the compound Cc1cccc(C(=O)Nc2ccc(C(=O)/C=C/c3ccncc3)cc2)c1
no

Now the compound COc1ccc(-c2c(C(=O)c3ccccc3)[nH]c(N)c2C(=O)c2ccc(Br)cc2)cc1OC
no

----------
Molecular target: C-C chemokine receptor type 6 (Homo sapiens) (UniProt P51684)
Assay: potency against CXCR6 with APJ panel – cell-based, beta-arrestin, DiscoveRx, uHTS hits, dose response (AID 624129)
Conditions: CXCR6 beta-arrestin (DiscoveRx) antagonist cell assay, CCR6, dose range 1
outcomeMeasure: IC50

Request the reported IC50 associated with CC(C)c1ccc(O)c(NC(=S)NC(=O)c2cccnc2)c1
10.6 µM

Now the compound CCn1c(Cl)c(C=O)s/c1=N\S(=O)(=O)c1ccccc1
3.16 µM

Now the compound CN(O)C(=S)c1ccccc1
0.724 µM

Now the compound CCOC(=O)c1c(C)oc2c1c(C=NCc1ccccn1)c(O)c1ccccc12
7.01 µM

Now the compound Cc1cccc(C(=O)Nc2ccc(C(=O)/C=C/c3cccnc3)cc2)c1
5.35 µM

Now the compound NC(=S)N/N=C/c1ncc(C(F)(F)F)cc1Cl
6 µM

Now the compound C=C1CC(COc2cc(=O)oc3ccccc23)(c2ccccc2)OC1=O (stereo unspecified)
6.18 µM

Now the compound CCCCCCCCn1sccc1=O
6.52 µM

Now the compound CCCOc1cccc(-c2cc(C(=O)N/N=C/c3ccccn3)c3ccccc3n2)c1
2.7 µM

Now the compound C=C1C(=O)OC2C1CCC(C)=C1C(=O)C3OC3(C)C12 (stereo unspecified)
6.5 µM

Now the compound CCN(c1ccccc1)S(=O)(=O)c1ccc(NC(=O)c2nc(S(C)(=O)=O)ncc2Cl)cc1
11.6 µM

----------
Target: C-X-C chemokine receptor type 6 (Homo sapiens) (UniProt O00574)
Assay: potency against CXCR6 with APJ panel – cell-based, beta-arrestin, DiscoveRx, uHTS hits, dose response (AID 624129)
Conditions: CXCR6 beta-arrestin (DiscoveRx) antagonist cell assay, CXCR6, run 1, dose range 2
outcomeMeasure: pIC50
Scale for pIC50: -log10 of concentration given in mol/L; no unit attached.

Request the reported pIC50 associated with O=C(Nc1nc2c(F)cc(F)cc2s1)c1ccccn1
6.10

Now the compound O=C1C=CC2C3C(=O)N(c4ccccc4)C(=O)C3C1N2Cc1ccccc1 (stereo not given)
4.71

Now the compound CC1(C)CC[C@]2(C(=O)n3ccnc3)CC[C@]3(C)[C@H](C(=O)C=C4[C@@]5(C)C=C(C#N)C(=O)C(C)(C)[C@@H]5CC[C@]43C)[C@@H]2C1
4.84

Now the compound CC(=O)OCCNc1cc(Sc2nc3ccccc3[nH]2)c2nonc2c1[N+](=O)[O-]
5.13

Now the compound CC(Oc1cccc(Cl)c1)C(=O)Nc1nc(-c2ccccn2)cs1 (stereo not given)
5.25

Now the compound Cc1cccc(Cc2cnc(N3C(=N)SC(C)C3=O)s2)c1 (stereo not given)
5.11

Now the compound Oc1cccc2ccc(/C=C/c3cccs3)nc12
5.56

Now the compound C=C1CC(COc2cc(=O)oc3ccccc23)(c2ccccc2)OC1=O (stereo not given)
5.21

Now the compound FC(F)(F)c1cnc(NNC(=S)Nc2ccc(Cl)cc2)c(Cl)c1
5.11

Now the compound C=C1C(=O)C23C(O)C1CCC2C12CCCC(C)(COC(C)=O)C1C(O)C3(O)OC2 (stereo not given)
5.19

----------
Biological target: Apelin receptor (Homo sapiens)
Assay: potency against CXCR6 with APJ panel – cell-based, beta-arrestin, DiscoveRx, uHTS hits, dose response (AID 624129)
Settings: CXCR6 beta-arrestin (DiscoveRx) antagonist cell assay, APJ, run 2, dose range 1
outcomeMeasure: pIC50
Scale for pIC50: -log10 of concentration given in mol/L; no unit attached.

Request the reported pIC50 associated with COc1ccc(-c2csc(Cc3nc(O)cs3)n2)cc1
5.23

Now the compound CCn1c(=O)c([N+](=O)[O-])c(Cl)c2ccccc21
4.67

Now the compound COc1cc(/C=C/c2ccc3cccc(O)c3n2)ccc1O
4.68

Now the compound O=S(=O)(/C=C/C=C/S(=O)(=O)c1ccccc1)c1ccccc1
4.59

Now the compound CCS(=O)(=O)c1ncc(Cl)c(C(=O)Nc2ccc(S(=O)(=O)N3CCCC(C)C3)cc2)n1 (stereo not drawn)
5.05

Now the compound Cc1ccc(NC(=S)N/N=C/c2ccc([N+](=O)[O-])s2)cc1
4.74

Now the compound O=C(C#Cc1ccccc1)c1ccc([N+](=O)[O-])cc1
5.26

Now the compound On1ccccc1=S
4.76

Now the compound O=C1C=CC2(C=C1)O[C@H](Cc1ccccc1)[C@@H](Cc1ccccc1)O2
5.05

Now the compound C=CS(=O)(=O)c1c2cc(OC)ccc2nc2ccc(OC)cc12
4.73

Now the compound CCC(=O)OCCNc1cc(Sc2nc3ccccc3s2)c2nonc2c1[N+](=O)[O-]
4.64

Now the compound CCCCOc1ccc(C(=O)NNC(=S)NC(=O)CC)cc1
4.98

Now the compound O=C(CSc1nc(-c2ccco2)cc(C(F)(F)F)n1)NCCCn1ccnc1
4.64

Now the compound O=Cc1s/c(=N\S(=O)(=O)c2ccccc2)n(CCCCl)c1Cl
5.27

Now the compound C=C1CC(COc2ccc3c(C)c(Cl)c(=O)oc3c2)(c2ccccc2)OC1=O (stereo not drawn)
4.27

Now the compound CCCCCCN1C=C/C(=C\C=C(C#N)C#N)c2ccccc21
4.28

Now the compound Cc1ccccc1Oc1cc(-n2ncc(Cl)c(Cl)c2=O)ncn1
5.23

Now the compound Cc1cc(C)c2c(=O)n(CC(=O)Nc3cccc(Cl)c3C)sc2n1
5.26

----------
Target: C-X-C chemokine receptor type 6 (Homo sapiens)
Assay: potency against CXCR6 with APJ panel – cell-based, beta-arrestin, DiscoveRx, uHTS hits, dose response (AID 624129)
Details: CXCR6 beta-arrestin (DiscoveRx) antagonist cell assay, CXCR6, dose range 1, mean IC50 across replicates
outcomeMeasure: log10 IC50 (log10 of the value in µM)
Log10 applied to IC50; unit prior to transform: µM.

Request the reported log10 IC50 associated with O=[N+]([O-])c1c(Nc2ccc(O)cc2)cc(Cl)c2nonc12
0.43

Now the compound C=C1CC(COc2ccc3c(C)c(Cl)c(=O)oc3c2)(c2ccccc2)OC1=O (stereo unspecified)
0.59

Now the compound CCCCOc1ccc(C(=O)NNC(=S)NC(=O)CC)cc1
1.02

Now the compound Cc1ccc(-n2c(SCCN)nnc2-c2cccc(C)c2)cc1
1.83

Now the compound Cc1cccc(CSc2cccc3cccnc23)c1
0.55

Now the compound Cc1cc(C)c2c(=O)n(CC(=O)Nc3cccc(Cl)c3C)sc2n1
0.38

Now the compound CC(=O)Nc1nc2ccccc2n1CCOc1ccccc1Cl
1.08

Now the compound Cn1c(O)c(C2=NNC(c3ccc(Cl)cc3)C2)c(=O)n(C)c1=O (stereo unspecified)
1.07

Now the compound C/C(=N\NC(=O)Cn1c(-c2ccccn2)nc2ccccc21)c1ccccc1
1.26

Now the compound NC(=O)c1ccccc1NCC(=O)c1ccc(Cl)cc1
0.75

Now the compound Cc1cc(C)nc(S/C=C/C(=O)c2ccccc2)n1
1.40
